- Test system: LPS in rat peritonitis (CLP; cecal ligation and puncture) model
- experiment: Inhibitory effect on LPS that increases in rat peritonitis (CLP) model
- Assay type: in vivo
- measurement.parameters: iv, continuous tail vein infusion 2.5 mg/kg/hr, serum 6 hr after CLP, read-out: LPS inhibitory ratio (%) in blood
value.type: inhibition in vivo at 2.5 mg/kg/h (%)
Report the figure in % without appending any unit label.

State its inhibition in vivo at 2.5 mg/kg/h: CNC(=O)[C@H](Cc1ccc(OCCCCS(=O)(=O)[O-])cc1)NC(=O)[C@H](CC(C)C)C(CN1C(=O)c2ccccc2C1=O)C(=O)NO.[Na+] (single isomer, unassigned) [Example 11, sodium salt]
36.2

Determine from records and report inhibition in vivo at 2.5 mg/kg/h for CC(C)C[C@@H](C(=O)N[C@@H](Cc1ccccc1)C(=O)NCCCCCS(=O)(=O)[O-])C(CN1C(=O)c2ccccc2C1=O)C(=O)NO.[Na+] (single isomer, unassigned) [Example 22, sodium salt]
21.6

----------
- System: LPS in E. coli culture supernatant (E. coli NIHJ JC-2 strain)
- experiment: Inhibitory effect on LPS in E. coli culture supernatant
- Type: cell-based
- measurement.parameters: relative ratio to the inhibitory ratio of the compound of Example 1 as 1.0; compound 100 μM, 24 hr
- Description: One platinum loop of E. coli NIHJ JC-2 strain was inoculated into a test tube containing heart infusion broth (HIB, 5 mL) and cultured for about 24 hr. […] The resulting suspension (200 μL) was added to a limulus reagent (LAL ES, Wako Pure Chemical Industries) and LPS concentration was measured using Toxinometer MT-285 (Wako Pure Chemical Industries) preheated to 37° C. […]
value.type: inhibitory effect of compound on LPS in E. coli culture supernatant, relative ratio
Respond using a number only.

Read the entry CNC(=O)[C@H](Cc1ccc(OCCCCCS(=O)(=O)[O-])cc1)NC(=O)[C@H](CC(C)C)C(CN1C(=O)c2ccccc2C1=O)C(=O)NO.[Na+] (single isomer, unassigned) and write its reported inhibitory effect of compound on LPS in E. coli culture supernatant, relative ratio.
0.85

Return reported inhibitory effect of compound on LPS in E. coli culture supernatant, relative ratio. Input compound: CNC(=O)[C@H](Cc1ccc(OCCS(=O)(=O)[O-])cc1)NC(=O)[C@H](CC(C)C)C(CN1C(=O)c2ccccc2C1=O)C(=O)NO.[Na+] (single isomer, unassigned)
0.87

Report measured inhibitory effect of compound on LPS in E. coli culture supernatant, relative ratio; entry is CC(C)C[C@@H](C(=O)N[C@@H](Cc1ccccc1)C(=O)NCCCCS(=O)(=O)[O-])C(CN1C(=O)c2ccccc2C1=O)C(=O)NO.[Na+] (single isomer, unassigned)
0.79

Item CNC(=O)[C@H](Cc1ccc(OCCCCS(=O)(=O)[O-])cc1)NC(=O)[C@H](CC(C)C)C(CN1C(=O)c2ccccc2C1=O)C(=O)NO.[Na+] (single isomer, unassigned) : provide inhibitory effect of compound on LPS in E. coli culture supernatant, relative ratio
0.74

Please give measured inhibitory effect of compound on LPS in E. coli culture supernatant, relative ratio of the following entry: CC(C)C[C@@H](C(=O)N[C@@H](Cc1ccccc1)C(=O)NCCCCCS(=O)(=O)[O-])C(CN1C(=O)c2ccccc2C1=O)C(=O)NO.[Na+] (single isomer, unassigned)
0.68

For CC(C)C[C@@H](C(=O)N[C@@H](Cc1ccccc1)C(=O)NCCCS(=O)(=O)[O-])C(CN1C(=O)c2ccccc2C1=O)C(=O)NO.[Na+] (single isomer, unassigned) , write its inhibitory effect of compound on LPS in E. coli culture supernatant, relative ratio.
0.67

Supply measured inhibitory effect of compound on LPS in E. coli culture supernatant, relative ratio of CC(C)C[C@@H](C(=O)N[C@@H](Cc1ccccc1)C(=O)NCS(=O)(=O)[O-])C(CN1C(=O)c2ccccc2C1=O)C(=O)NO.[Na+] (single isomer, unassigned) in your reply.
1.05

Please report the measured inhibitory effect of compound on LPS in E. coli culture supernatant, relative ratio for CNC(=O)[C@H](Cc1ccc(OCCCS(=O)(=O)[O-])cc1)NC(=O)[C@H](CC(C)C)C(Cc1ccc2ccccc2c1)C(=O)NO.[Na+] (single isomer, unassigned)
0.87

Entry CC(C)C[C@@H](C(=O)N[C@@H](Cc1ccccc1)C(=O)NCS(=O)(=O)[O-])C(Cc1ccc2ccccc2c1)C(=O)NO.[Na+] (single isomer, unassigned) needs its inhibitory effect of compound on LPS in E. coli culture supernatant, relative ratio filled in; supply it.
0.33

Write down inhibitory effect of compound on LPS in E. coli culture supernatant, relative ratio measured for item CC(C)C[C@@H](C(=O)N[C@@H](Cc1ccccc1)C(=O)NCCS(=O)(=O)[O-])C(CN1C(=O)c2ccccc2C1=O)C(=O)NO.[Na+] (single isomer, unassigned)
0.78

// Input: CC(C)C[C@@H](C(=O)N[C@@H](Cc1ccccc1)C(=O)NCCS(=O)(=O)[O-])C(Cc1ccc2ccccc2c1)C(=O)NO.[Na+] (single isomer, unassigned) . Output its inhibitory effect of compound on LPS in E. coli culture supernatant, relative ratio only.
0.54

----------
- Tested on: LPS in rat peritonitis (CLP; cecal ligation and puncture) model
- experiment: Inhibitory effect on LPS that increases in rat peritonitis (CLP) model
- Type: in vivo
- measurement.parameters: iv, continuous tail vein infusion 2.5 mg/kg/hr, serum 6 hr after CLP, read-out: LPS inhibitory ratio (%) in blood
value.type: inhibition in vivo at 2.5 mg/kg/h (%)
Write the value in % as a bare number.

Name the recorded inhibition in vivo at 2.5 mg/kg/h of the item CC(C)C[C@@H](C(=O)N[C@@H](Cc1ccccc1)C(=O)NCCCS(=O)(=O)[O-])C(CN1C(=O)c2ccccc2C1=O)C(=O)NO.[Na+] (single isomer, unassigned) [Example 19, sodium salt] in your answer.
67.8

# return recorded inhibition in vivo at 2.5 mg/kg/h for entry CC(C)C[C@@H](C(=O)N[C@@H](Cc1ccccc1)C(=O)NCCCCS(=O)(=O)[O-])C(CN1C(=O)c2ccccc2C1=O)C(=O)NO.[Na+] (single isomer, unassigned) [Example 21, sodium salt]
55.9

Tell us which inhibition in vivo at 2.5 mg/kg/h value is on record for CC(C)C[C@@H](C(=O)N[C@@H](Cc1ccccc1)C(=O)NCCS(=O)(=O)[O-])C(CN1C(=O)c2ccccc2C1=O)C(=O)NO.[Na+] (single isomer, unassigned) [Example 17, sodium salt]
59.1

Tell me its inhibition in vivo at 2.5 mg/kg/h given CNC(=O)[C@H](Cc1ccc(OCCCS(=O)(=O)[O-])cc1)NC(=O)[C@H](CC(C)C)C(CN1C(=O)c2ccccc2C1=O)C(=O)NO.[Na+] (single isomer, unassigned) [Example 1, sodium salt] as the entry.
79.9

----------
- System: LPS in rat peritonitis (CLP; cecal ligation and puncture) model
- experiment: Inhibitory effect on LPS that increases in rat peritonitis (CLP) model
- Format: in vivo
- measurement.parameters: iv, continuous tail vein infusion 2.5 mg/kg/hr, serum 6 hr after CLP, read-out: LPS inhibitory ratio (%) in blood
- Procedure: Rat peritonitis (CLP; cecal ligation and puncture) model was prepared according to the method of Wichterman et al. (J. Surg. Res. 29, 189-201 <1980>). […] After 6 hr of the CLP treatment, the animal was sacrificed with carbonic acid gas. […] The recovery weight of the obtained PLF was measured, and PLF was centrifuged (1500 rpm for 5 min, 4° C.) to recover supernatant. […] The amount of LPS per abdominal cavity was calculated from amount of recovered abdominal cavity washing (PLF)×LPS concentration of PLF. […]
For each record, write down the corresponding inhibition in vivo at 2.5 mg/kg/h.
# unit: % | format: bare number

In one line, give reported inhibition in vivo at 2.5 mg/kg/h of the entry CNC(=O)[C@H](Cc1ccc(OCCCS(=O)(=O)[O-])cc1)NC(=O)[C@H](CC(C)C)C(Cc1ccc2ccccc2c1)C(=O)NO.[Na+] (single isomer, unassigned) [Example 13, sodium salt] .
74.2

Name the recorded inhibition in vivo at 2.5 mg/kg/h of the molecule listed here: CC(C)C[C@@H](C(=O)N[C@@H](Cc1ccccc1)C(=O)NCS(=O)(=O)[O-])C(CN1C(=O)c2ccccc2C1=O)C(=O)NO.[Na+] (single isomer, unassigned) [Example 15, sodium salt]
68.2

Respond only with inhibition in vivo at 2.5 mg/kg/h recorded for CNC(=O)[C@H](Cc1ccc(OCCS(=O)(=O)[O-])cc1)NC(=O)[C@H](CC(C)C)C(CN1C(=O)c2ccccc2C1=O)C(=O)NO.[Na+] (single isomer, unassigned) [Example 10, sodium salt]
81.4

Ref: patent US6989401B2
